- system: T1, MICB*005 on HCC1534 cells (human, UniProt Q29980 23-383)
- T1 sequence (looked up): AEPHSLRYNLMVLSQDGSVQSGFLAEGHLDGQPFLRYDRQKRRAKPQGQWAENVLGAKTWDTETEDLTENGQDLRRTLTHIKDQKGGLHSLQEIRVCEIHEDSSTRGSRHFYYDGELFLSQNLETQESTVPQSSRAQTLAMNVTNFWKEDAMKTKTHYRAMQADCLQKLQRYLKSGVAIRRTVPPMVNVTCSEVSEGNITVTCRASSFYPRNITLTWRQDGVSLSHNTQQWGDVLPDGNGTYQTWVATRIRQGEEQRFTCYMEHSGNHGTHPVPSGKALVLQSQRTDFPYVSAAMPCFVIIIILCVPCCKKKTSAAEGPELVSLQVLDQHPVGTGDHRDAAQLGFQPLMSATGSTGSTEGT
- test_description: cell-based or functional assay
Flag rule - EC50 of shedding inhibition less than 0.08 µg/mL flags met; the remaining entries get not met.

The examples below pair each entry with its known result.
Report whether reported EC50 of shedding inhibition is lower than 0.08 µg/mL (strictly) for 12H10 (antibody, V domains shown, Mouse variable domains; constant regions differ by assay) VH: DVQLQESGPGLVKPSQPLSLTCTVTGYSITSNYAWNWIRQFPGDKLEWMGYISSSGITKSNPSLKSRISITRDTSKNQFFLQLNSLTTEDTATYYCSRWSNWSFDVWGAGTTVTVSS VL: DIQMTQTPSSLSVSLGDRVTINCRASQDIHNYFNWYQQKPDGTIKLLIYYTSRFHSGVPSRFSGSGSGTDYSLTISNLEEEDIATYFCQQGNSLPPTFGGGTKLEIK not met

Try this binder too: 20G11 (antibody, V domains shown, Mouse hybridoma antibody; constant regions differ by assay) VH: DVQLVESGGGLVQPGGSRKLSCAASGFTFSTFGIHWVRQAPEKGLEWVAYISYDSRTIYYADTVKGRFTISRDNPKNTLFLQMTSLRSEDTAMYYCARWAYEGGVNYFDNWGQGTTLTVSS VL: QIVLTQSPAIMSASLGERVTMTCTATSGVSSSYLHWYQQKPGSSPKLWIYSSSNLASGVPARFSGSGSGTSYSLTIGSMEAEDAATYYCHQFHRSPLTFGTGTKVEIK met

Now consider 2E5.2.3 (antibody, V domains shown, Mouse hybridoma antibody; constant regions differ by assay) VH: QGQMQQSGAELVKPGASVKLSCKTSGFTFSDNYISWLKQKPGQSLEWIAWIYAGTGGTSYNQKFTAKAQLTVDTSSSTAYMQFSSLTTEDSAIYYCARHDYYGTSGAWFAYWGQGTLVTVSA VL: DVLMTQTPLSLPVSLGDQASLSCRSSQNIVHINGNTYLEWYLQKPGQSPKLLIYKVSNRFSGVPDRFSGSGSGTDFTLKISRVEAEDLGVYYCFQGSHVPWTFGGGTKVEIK . not met

Others:
I wonder whether 1D5 (antibody, V domains shown, Mouse variable domains; constant regions differ by assay (human IgG1 or mouse IgG2a); also called anti-MIC 1D5) VH: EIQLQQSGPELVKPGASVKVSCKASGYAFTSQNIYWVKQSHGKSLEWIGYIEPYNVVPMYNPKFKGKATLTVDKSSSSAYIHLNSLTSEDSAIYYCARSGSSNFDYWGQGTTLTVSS VL: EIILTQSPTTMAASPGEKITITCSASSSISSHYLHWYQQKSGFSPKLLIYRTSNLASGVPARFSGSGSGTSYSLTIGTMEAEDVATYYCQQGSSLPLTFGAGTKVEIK has EC50 of shedding inhibition below 0.08 µg/mL. Can you tell? met

And then 15F11 (antibody, V domains shown, Mouse variable domains; constant regions differ by assay) VH: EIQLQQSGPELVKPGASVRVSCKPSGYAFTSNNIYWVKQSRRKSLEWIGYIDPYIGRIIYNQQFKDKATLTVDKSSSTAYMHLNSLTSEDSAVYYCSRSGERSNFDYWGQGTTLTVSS VL: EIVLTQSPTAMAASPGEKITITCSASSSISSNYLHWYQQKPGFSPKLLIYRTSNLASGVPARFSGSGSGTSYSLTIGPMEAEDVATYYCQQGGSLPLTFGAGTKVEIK , what is it? met

Okay, and 13A9 (antibody, V domains shown, Mouse variable domains; constant regions differ by assay) VH: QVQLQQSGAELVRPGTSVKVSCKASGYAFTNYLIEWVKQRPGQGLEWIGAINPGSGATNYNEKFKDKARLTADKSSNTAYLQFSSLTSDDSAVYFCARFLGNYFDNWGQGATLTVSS VL: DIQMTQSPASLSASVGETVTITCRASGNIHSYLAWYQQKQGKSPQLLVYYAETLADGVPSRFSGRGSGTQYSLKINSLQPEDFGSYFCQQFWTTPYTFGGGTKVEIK ? met

meta.source: patent US20200055939A1
